Biological target: binding partner of C5A (XPA23)
Test: Biacore K-off
Rule: fold difference in affinity vs original under 1 fold gives not met, otherwise met.

Solved entries:
- Binder: "C5A (XPA23) VH S30G (antibody, V domains shown) VH: EVQLLESGGGLVQPGGSLRLSCAASGFTFGKYFMFWVRQAPGKGLEWVSVISPSGGMTRYADSVKGRFTISRDNSKNTLYLQMNSLRAEDTAVYYCARVGYGGNSDYWGQGTLVTVSS VL: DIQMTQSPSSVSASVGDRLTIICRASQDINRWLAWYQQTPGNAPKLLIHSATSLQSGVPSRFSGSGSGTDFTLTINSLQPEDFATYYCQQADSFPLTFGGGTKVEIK"
  Class: "not met"
- Binder: "C5A (XPA23) VL S53K (antibody, V domains shown) VH: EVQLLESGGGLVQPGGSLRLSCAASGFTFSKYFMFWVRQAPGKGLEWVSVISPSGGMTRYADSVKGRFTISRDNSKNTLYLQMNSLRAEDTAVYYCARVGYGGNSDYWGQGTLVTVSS VL: DIQMTQSPSSVSASVGDRLTIICRASQDINRWLAWYQQTPGNAPKLLIHSATKLQSGVPSRFSGSGSGTDFTLTINSLQPEDFATYYCQQADSFPLTFGGGTKVEIK"
  Class: "met"
- Binder: "C5A (XPA23) VL N30I (antibody, V domains shown) VH: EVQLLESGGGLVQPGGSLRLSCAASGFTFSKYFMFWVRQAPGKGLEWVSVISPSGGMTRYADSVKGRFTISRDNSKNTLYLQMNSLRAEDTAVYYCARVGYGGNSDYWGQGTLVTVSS VL: DIQMTQSPSSVSASVGDRLTIICRASQDIIRWLAWYQQTPGNAPKLLIHSATSLQSGVPSRFSGSGSGTDFTLTINSLQPEDFATYYCQQADSFPLTFGGGTKVEIK"
  Class: "not met"
- Binder: "C5A (XPA23) VL D92A (antibody, V domains shown) VH: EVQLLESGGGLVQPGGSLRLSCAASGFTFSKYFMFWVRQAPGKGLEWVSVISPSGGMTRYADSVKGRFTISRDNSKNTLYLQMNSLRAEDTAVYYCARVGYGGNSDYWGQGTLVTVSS VL: DIQMTQSPSSVSASVGDRLTIICRASQDINRWLAWYQQTPGNAPKLLIHSATSLQSGVPSRFSGSGSGTDFTLTINSLQPEDFATYYCQQAASFPLTFGGGTKVEIK"
  Class: "not met"
- Binder: "C5A (XPA23) VL Q27F (antibody, V domains shown) VH: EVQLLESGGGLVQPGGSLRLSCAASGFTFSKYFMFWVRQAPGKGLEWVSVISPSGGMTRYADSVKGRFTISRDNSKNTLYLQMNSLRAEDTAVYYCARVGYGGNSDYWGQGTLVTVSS VL: DIQMTQSPSSVSASVGDRLTIICRASFDINRWLAWYQQTPGNAPKLLIHSATSLQSGVPSRFSGSGSGTDFTLTINSLQPEDFATYYCQQADSFPLTFGGGTKVEIK"
  Class: "met"
- Binder: "C5A (XPA23) VH F33N (antibody, V domains shown) VH: EVQLLESGGGLVQPGGSLRLSCAASGFTFSKYNMFWVRQAPGKGLEWVSVISPSGGMTRYADSVKGRFTISRDNSKNTLYLQMNSLRAEDTAVYYCARVGYGGNSDYWGQGTLVTVSS VL: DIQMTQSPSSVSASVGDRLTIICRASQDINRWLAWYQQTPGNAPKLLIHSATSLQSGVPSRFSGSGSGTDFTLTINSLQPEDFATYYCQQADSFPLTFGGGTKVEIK"
  Class: "not met"
- Binder: "C5A (XPA23) VL S93W (antibody, V domains shown) VH: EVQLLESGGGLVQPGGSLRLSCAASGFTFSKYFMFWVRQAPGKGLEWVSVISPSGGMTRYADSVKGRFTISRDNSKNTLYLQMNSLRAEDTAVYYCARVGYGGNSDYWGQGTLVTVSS VL: DIQMTQSPSSVSASVGDRLTIICRASQDINRWLAWYQQTPGNAPKLLIHSATSLQSGVPSRFSGSGSGTDFTLTINSLQPEDFATYYCQQADWFPLTFGGGTKVEIK"
  Class: "met"
- Binder: "C5A (XPA23) VL N30E (antibody, V domains shown) VH: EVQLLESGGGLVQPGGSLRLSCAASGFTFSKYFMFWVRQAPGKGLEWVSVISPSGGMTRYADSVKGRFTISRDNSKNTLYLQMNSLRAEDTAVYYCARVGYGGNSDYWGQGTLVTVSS VL: DIQMTQSPSSVSASVGDRLTIICRASQDIERWLAWYQQTPGNAPKLLIHSATSLQSGVPSRFSGSGSGTDFTLTINSLQPEDFATYYCQQADSFPLTFGGGTKVEIK"
  Class: "not met"

Dear colleague, could you confirm whether C5A (XPA23) VH F33Y (antibody, V domains shown) VH: EVQLLESGGGLVQPGGSLRLSCAASGFTFSKYYMFWVRQAPGKGLEWVSVISPSGGMTRYADSVKGRFTISRDNSKNTLYLQMNSLRAEDTAVYYCARVGYGGNSDYWGQGTLVTVSS VL: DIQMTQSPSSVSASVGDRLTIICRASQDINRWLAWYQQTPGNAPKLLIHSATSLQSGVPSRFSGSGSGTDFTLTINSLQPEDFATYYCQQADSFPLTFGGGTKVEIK has fold difference in affinity vs original at or above 1 fold? not met

Is fold difference in affinity vs original for C5A (XPA23) VL N30F (antibody, V domains shown) VH: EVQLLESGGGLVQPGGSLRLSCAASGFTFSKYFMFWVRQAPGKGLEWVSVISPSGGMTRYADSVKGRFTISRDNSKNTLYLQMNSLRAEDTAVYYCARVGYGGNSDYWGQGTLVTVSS VL: DIQMTQSPSSVSASVGDRLTIICRASQDIFRWLAWYQQTPGNAPKLLIHSATSLQSGVPSRFSGSGSGTDFTLTINSLQPEDFATYYCQQADSFPLTFGGGTKVEIK at or above 1 fold? met
